meta.source: patent US20120208848A1

Experiment Notes: Solubility of gacyclidine as a function of pH and excipients, room temperature, glass vials
Type: physicochemical
Study Conditions: thermodynamic from solid; hydrochloride salt, water; read-out: final concentration giving a clear solution in water
Assay Readout: solubility

Give me measured solubility, please, for this compound: CC1CCCCC1(c1cccs1)N1CCCCC1.Cl (stereo not shown)
≥ 550 mM

====

Experiment Notes: Gacyclidine remaining in solution as a function of pH and excipients, 37° C., polypropylene vials
Assay type: physicochemical
Study Conditions: buffered aqueous solution, aqueous buffer; pH 9.2, 37° C., polypropylene vials, presence or absence of 0.1% SOLUPHOR P
Assay Readout: solubility kinetic at 2 days

Read off the recorded solubility kinetic at 2 days for CC1CCCCC1(c1cccs1)N1CCCCC1.Cl (stereo not shown)
~1 µM
